System: OVCAR3 cells
protocol_text: MTT proliferation assay, OVCAR3;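 further: compound given as an 8- or 10-point series, one day after plating, with exposure covering roughly 3-4 cell doublings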
Assay type: cell-based
experimental_conditions: 5 days compound exposure, 1:3 serial dilution starting at 10 μM
*1 amine or outer side, *2 acyl side, *3 side chain or, on linkers, in order; H or OH if unused. Where a SMILES comes first, the peptide text is derived from it. Bridges are numbered along the chain shown (N, C = ends). [ ]: non-standard residue; d: D form. The star is where a group is joined. X85 = CN([C@@H](Cc1cc(Cl)ccc1-c1ccc([C@]23CCOC[C@H]2C3)nc1)C(=O)[*:2])[*:1]; NMehhhLys(Me) = CN([C@@H](CCCCCCCN(C)[*:3])C(=O)[*:2])[*:1]; cBuCO(3,3-F2-1-CF3) = O=C(C1(C(F)(F)F)CC(F)(F)C1)*; Pro(trans-4-F) = O=C(O)[C@@H]1C[C@@H](F)CN1; Gly(cPr) = N[C@H](C(=O)O)C1CC1
Assign GI50 to each entry below.
Quick reminder: number only, in nM, skip the unit.

Lookup: Please list GI50 recorded for the compound CC(C)C[C@H]1NC(=O)[C@H](N(C)C(=O)[C@H](NC(=O)[C@H]2C[C@H](F)CN2C(=O)C2(C#N)CCC2)C2CC2)CCCCCCCN(C)C(=O)[C@@H](Cc2cc(Cl)ccc2-c2cnn(C)c2)N(C)C1=O [Example 82]
Found: 70

Lookup: Query GI50 for CC(C)C[C@@H]1NC(=O)[C@@H](N(C)C(=O)[C@@H](NC(=O)[C@@H]2C[C@@H](F)CN2C(=O)C2(C(F)(F)F)CC(F)(F)C2)C2CC2)CCCCCCCN(C)C(=O)[C@H](Cc2cc(Cl)ccc2-c2ccc([C@]34CCOC[C@H]3C4)nc2)N(C)C1=O [Example 369] ({cBuCO(3,3-F2-1-CF3)}-[Pro(trans-4-F)][Gly(cPr)][NMehhhLys(Me)]L[X85]; lactam 3-C)
Found: 20

These entries and their values trace back to patent US20240408169A1.
